TGT: STYK1
PROCEDURE TEXT: pooled miR-30 sensor sort-seq; sequence = guide strand; further: reference of the scale not given here
CONDITIONS: shRNA
MEASUREMENT KIND: sensor-assay potency score (higher = more potent)
Please reply with the value in numeric form only.

# count of solved cases: 4
In [3]: df
Out[3]:
      biopolymer_sequence  recorded_value
0  ATAGTCATCACATCCCGCCGAC          -0.512
1  TTCATGATACTGTACATGGTAT          -0.548
2  TAGAAGAGGCTCTCCACTCTGA           0.202
3  TATTCCTTCATTTCATTCCAAA           -1.26

Data request, read-out sensor-assay potency score (higher = more potent), for TTGAGGTCCAGAACGCTGCTGT
0.125

Data request, read-out sensor-assay potency score (higher = more potent), for ATCCATAGTCATCACATCCCGC
-0.719

Data request, read-out sensor-assay potency score (higher = more potent), for ATAGTAACCAACAAAGTTGGGA
0.0523

Data request, read-out sensor-assay potency score (higher = more potent), for TTGTTCTCTGATAAAAAGCCAC
-1.1

Data request, read-out sensor-assay potency score (higher = more potent), for TTGAGTTCTTTGTTCTCTGATA
-1.2

Recorded values, source the OligoGym collection.
